- Assay System: Gonadotropin-releasing hormone receptor (Rattus norvegicus) (UniProt P30969)
- Sequence (P30969 whole entry): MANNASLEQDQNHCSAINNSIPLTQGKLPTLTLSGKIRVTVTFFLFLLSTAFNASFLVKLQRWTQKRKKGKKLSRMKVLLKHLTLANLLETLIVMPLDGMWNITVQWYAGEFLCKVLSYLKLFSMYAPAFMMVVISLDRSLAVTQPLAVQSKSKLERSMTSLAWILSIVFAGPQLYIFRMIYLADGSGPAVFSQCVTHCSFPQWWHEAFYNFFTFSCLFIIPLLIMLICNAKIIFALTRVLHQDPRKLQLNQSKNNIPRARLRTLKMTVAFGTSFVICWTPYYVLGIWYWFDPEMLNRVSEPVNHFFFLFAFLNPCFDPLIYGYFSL
- Assay: Antiovulatory activity on proestrus was measured by administering as a solution in 50% propylene glycol / 0.9% saline in rat
- Format: functional
ED50 (ug injection-1) by entry:
Answer as a number with no unit attached.

Asked: Reported ED50 (ug injection-1) for CCNC(=NCCCC[C@H](NC(=O)[C@H](CO)NC(=O)[C@@H](Cc1c[nH]c2ccccc12)NC(=O)[C@@H](Cc1ccc(Cl)cc1)NC(=O)[C@@H](Cc1ccc2ccccc2c1)NC(C)=O)C(=O)N[C@H](Cc1ccc2ccccc2c1)C(=O)N[C@@H](CC(C)C)C(=O)N[C@@H](CCCN=C(N)N)C(=O)N1CCC[C@H]1C(=O)N[C@H](C)C(N)=O)NCC : what is it?
Given back: 1.6

Asked: // ED50 (ug injection-1) lookup, key: CNC(=NCCCC[C@@H](NC(=O)[C@H](Cc1ccc(O)cc1)NC(=O)[C@H](CO)NC(=O)[C@@H](Cc1c[nH]c2ccccc12)NC(=O)[C@@H](Cc1ccc(F)cc1)NC(=O)[C@@H](Cc1ccc2ccccc2c1)NC(C)=O)C(=O)N[C@@H](CC(C)C)C(=O)N[C@@H](CCCN=C(N)N)C(=O)N1CCC[C@H]1C(=O)NCC(N)=O)NC
Given back: 1.7

* * *

- Assay System: Gonadotropin-releasing hormone receptor (Rattus norvegicus) (UniProt P30969)
- Assay: Antiovulatory activity on diestrus II following administration as a solution in corn oil (24h earlier) in rat.
- Assay type: functional, organism-based
Endpoint Label: ED50 (ug injection-1)
Returns: the value as a bare number; no unit string appended.

Asked: Consider the compound CCCNC(=NCCCC[C@@H](NC(=O)[C@H](Cc1ccc(O)cc1)NC(=O)[C@H](CO)NC(=O)[C@@H](Cc1c[nH]c2ccccc12)NC(=O)[C@@H](Cc1ccc(Cl)cc1)NC(=O)[C@@H](Cc1ccc(Cl)cc1)NC(C)=O)C(=O)N[C@@H](CC(C)C)C(=O)N[C@@H](CCCN=C(N)N)C(=O)N1CCC[C@H]1C(=O)N[C@H](C)C(N)=O)NCCC and give its measured ED50 (ug injection-1).
Given back: 14

* * *

- Assay System: Gonadotropin-releasing hormone receptor (Rattus norvegicus) (UniProt P30969)
- Assay: Antiovulatory activity on proestrus was measured by administering as a solution in 50% propylene glycol / 0.9% saline in rat
- Assay type: functional
Endpoint Label: ED50 (ug injection-1)
// no unit string in output, number only

{"columns": ["Molecule", "ED50 (ug injection-1)"],
 "data": [
  ["CCNC(=NCCCC[C@@H](NC(=O)[C@H](Cc1ccc(O)cc1)NC(=O)[C@H](CO)NC(=O)[C@@H](Cc1ccc2ccccc2c1)NC(=O)[C@@H](Cc1ccc(Cl)cc1)NC(=O)[C@@H](Cc1c[nH]c2ccccc12)NC(C)=O)C(=O)N[C@@H](CC(C)C)C(=O)N[C@@H](CCCN=C(N)N)C(=O)N1CCC[C@H]1C(=O)N[C@H](C)C(N)=O)NCC", 5.5],
  ["CCNC(=NCCCC[C@H](NC(=O)[C@H](CO)NC(=O)[C@@H](Cc1c[nH]c2ccccc12)NC(=O)[C@@H](Cc1ccc(Cl)cc1)NC(=O)[C@@H](Cc1ccc2ccccc2c1)NC(C)=O)C(=O)N[C@H](Cc1ccc(O)cc1)C(=O)N[C@@H](CC(C)C)C(=O)N[C@@H](CCCN=C(N)N)C(=O)N1CCC[C@H]1C(=O)N[C@H](C)C(N)=O)NCC", 1.7],
  ["CCNC(=NCCCC[C@@H](NC(=O)[C@H](Cc1ccc(O)cc1)NC(=O)[C@H](CO)NC(=O)[C@@H](Cc1c[nH]c2ccccc12)NC(=O)[C@@H](Cc1ccc(Cl)cc1)NC(=O)[C@@H](Cc1ccc2ccccc2c1)NC(C)=O)C(=O)N[C@@H](CC(C)C)C(=O)N[C@@H](CCCN=C(N)N)C(=O)N1CCC[C@H]1C(=O)NNC(N)=O)NCC", 0.55],
  ["CCNC(=NCCCC[C@@H](NC(=O)[C@H](Cc1ccc(O)cc1)NC(=O)[C@H](CO)NC(=O)[C@@H](Cc1c[nH]c2ccccc12)NC(=O)[C@@H](Cc1ccc(Cl)cc1)NC(=O)[C@@H](Cc1ccc2ccccc2c1)NC(C)=O)C(=O)N[C@@H](CC(C)C)C(=O)N[C@@H](CCCN=C(N)N)C(=O)N1CCC[C@H]1C(=O)N[C@H](C)C(N)=O)NCC (stereo in doubt; 25)", 0.5],
  ["CCNC(=NCCCC[C@@H](NC(=O)[C@H](Cc1ccc(O)cc1)NC(=O)[C@H](CO)NC(=O)[C@@H](Cc1c[nH]c2ccccc12)NC(=O)[C@@H](Cc1ccc(F)cc1)NC(=O)[C@@H](Cc1ccc2ccccc2c1)NC(C)=O)C(=O)N[C@@H](CC(C)C)C(=O)N[C@@H](CCCN=C(N)N)C(=O)N1CCC[C@H]1C(=O)NCC(N)=O)NCC", 1.6]
]}

Asked: Which measured ED50 (ug injection-1) value corresponds to CC(=O)N[C@H](Cc1ccc2ccccc2c1)C(=O)N[C@H](Cc1ccc(Cl)cc1)C(=O)N[C@H](Cc1cccnc1)C(=O)N[C@@H](CO)C(=O)N[C@@H](Cc1ccc(O)cc1)C(=O)N[C@H](CCCN=C(N)N)C(=O)N[C@@H](CC(C)C)C(=O)N[C@@H](CCCN=C(N)N)C(=O)N1CCC[C@H]1C(=O)N[C@H](C)C(N)=O ?
Given back: 0.5

Asked: Fill in: ED50 (ug injection-1) of CCCCCCNC(=NCCCC[C@@H](NC(=O)[C@H](Cc1ccc(O)cc1)NC(=O)[C@H](CO)NC(=O)[C@@H](Cc1c[nH]c2ccccc12)NC(=O)[C@@H](Cc1ccc(F)cc1)NC(=O)[C@@H](CO)NC(C)=O)C(=O)N[C@@H](CC(C)C)C(=O)N[C@@H](CCCN=C(N)N)C(=O)N1CCC[C@H]1C(=O)NCC(N)=O)NCCCCCC is ___
Given back: 16

From: ChEMBL document CHEMBL1123964
